Catalogue of Kd readings, one per entry.
- Tested on: T1, EsCas13d, nuclease-dead (Eubacterium siraeum, UniProt B0MS50, R295A;H300A;R849A;H854A)
- T1 sequence: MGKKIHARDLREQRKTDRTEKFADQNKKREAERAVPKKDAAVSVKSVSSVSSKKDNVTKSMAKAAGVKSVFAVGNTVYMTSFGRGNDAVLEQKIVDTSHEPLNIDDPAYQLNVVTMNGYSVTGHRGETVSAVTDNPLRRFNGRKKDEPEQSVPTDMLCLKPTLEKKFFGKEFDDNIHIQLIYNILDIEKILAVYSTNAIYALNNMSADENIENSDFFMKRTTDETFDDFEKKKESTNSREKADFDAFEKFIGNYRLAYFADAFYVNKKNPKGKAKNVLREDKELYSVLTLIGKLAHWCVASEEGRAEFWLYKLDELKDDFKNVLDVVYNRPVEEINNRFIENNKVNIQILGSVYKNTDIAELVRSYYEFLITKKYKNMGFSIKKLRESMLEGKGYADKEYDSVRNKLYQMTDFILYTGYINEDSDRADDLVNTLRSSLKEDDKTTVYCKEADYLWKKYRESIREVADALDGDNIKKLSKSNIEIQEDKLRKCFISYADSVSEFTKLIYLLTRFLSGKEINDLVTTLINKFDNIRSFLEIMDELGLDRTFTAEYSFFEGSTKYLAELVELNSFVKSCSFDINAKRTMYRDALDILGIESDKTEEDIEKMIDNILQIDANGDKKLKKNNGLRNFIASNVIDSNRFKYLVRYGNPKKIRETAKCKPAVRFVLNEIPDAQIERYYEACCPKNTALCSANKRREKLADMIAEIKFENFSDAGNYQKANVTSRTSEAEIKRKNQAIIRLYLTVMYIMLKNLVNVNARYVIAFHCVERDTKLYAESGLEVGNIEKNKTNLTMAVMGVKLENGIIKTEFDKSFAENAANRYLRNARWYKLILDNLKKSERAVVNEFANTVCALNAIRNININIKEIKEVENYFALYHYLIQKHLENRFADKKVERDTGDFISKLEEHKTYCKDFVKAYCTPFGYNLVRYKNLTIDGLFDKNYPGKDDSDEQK
- Test method notes: crRNA (strand 1, pre-loaded); Mg2+; 40 mM Tris-HCl pH 7.5, 150 mM NaCl, 6 mM MgCl2, 1 mM DTT, 0.1% Tween-20, 0.2 mg/ml BSA; 25 C; 10 min per concentration, then washed
- Study conditions: tags: His6-TwinStrep-SUMO cleaved; N-terminal SNAP kept (SNAP-Surface 488); label: 3' end held by stalled T7 RNA polymerase
The answer is to be given in nM; state only the numeric part.

What measured Kd goes with target 1 insG 3' of 2,insA 3' of 2 (mixed) RNA 1: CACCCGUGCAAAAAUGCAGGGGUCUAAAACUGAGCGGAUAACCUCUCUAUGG RNA 2: GGGAAUGGAUCCACAUCUACGAAUUCGUACCAUAGAGAGGUUAUCCGCUCGAACCGAGAUCGGAAGAGCACACGU ?
10

What measured Kd goes with target 2 MT 5'PFS UGG 3'PFS CAG (mixed) RNA 1: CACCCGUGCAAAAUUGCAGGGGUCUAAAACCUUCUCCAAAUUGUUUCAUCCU RNA 2: GGGAAUGGAUCCACAUCUACGAAUUCUGGAGGAUGAAACAAUUUGGAGAAGCAGAGAUCGGAAGAGCACACGU ?
6.2

What measured Kd goes with target 1 insG 3' of 16,insC 3' of 3 (mixed) RNA 1: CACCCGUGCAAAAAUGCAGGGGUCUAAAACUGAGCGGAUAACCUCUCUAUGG RNA 2: GGGAAUGGAUCCACAUCUACGAAUUCGUACCAUAGAGGAGGUUAUCCGCUCCACCGAGAUCGGAAGAGCACACGU ?
12.4
